Tested on: SEM cells
Assay: selective drug sensitivity score (sDSS, relative to normal bone marrow) (sDSS (score)); higher = more potent and effective on the cell line relative to normal bone marrow cells;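 also: ALL cell lines in 384-well plates, five doses spanning 10,000-fold, each plate scaled between vehicle and 100 µmol/L benzalkonium chloride controls, sDSS an adapted area-under-curve metric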
Settings: 72 h
parameter.measured: selective drug sensitivity score

Below, each entry is followed by its recorded selective drug sensitivity score result.
CC(C)c1cc(C(=O)N2Cc3ccc(CN4CCN(C)CC4)cc3C2)c(O)cc1O [Onalespib] (top concentration 2500 nM) : 3.92
COc1cc(N2CCC(N3CCN(C)CC3)CC2)ccc1Nc1ncc(Cl)c(Nc2ccccc2P(C)(C)=O)n1 [Brigatinib] (top concentration 1000 nM) : 4.06
C/C=C1\NC(=O)[C@H]2CSSCC/C=C/[C@H](CC(=O)N[C@H](C(C)C)C(=O)N2)OC(=O)[C@H](C(C)C)NC1=O [Romidepsin] (top concentration 1000 nM) : 3.96
NCC(=O)Nc1ccc(-n2nc(C(F)(F)F)cc2-c2ccc3c(ccc4ccccc43)c2)cc1 (top concentration 25000 nM) : 8
CC1(COc2ccc3c(c2)ncn3-c2ccc3cccc(N4CCC(N)CC4)c3n2)COC1 [Crenolanib] (top concentration 10000 nM) : 13.9
CC[C@H](C)C(=O)O[C@H]1C[C@H](O)C=C2C=C[C@H](C)[C@H](CC[C@@H](O)C[C@@H](O)CC(=O)O)[C@H]21 [Pravastatin] (top concentration 10000 nM) : -0.66

Prompt line: Give selective drug sensitivity score (SEM cells) of the following compound: Oc1nc(-c2ccc(C(F)(F)F)cc2)nc2c1CSCC2 [XAV939] (top concentration 10000 nM)
Response line: 0.56

Prompt line: Give selective drug sensitivity score (SEM cells) of the following compound: CCCOc1ccn2c(C(C)=O)cc(-c3ccccc3S(C)(=O)=O)c2c1 [GSK2801] (top concentration 10000 nM)
Response line: -0.36

###

Tested on: SEM cells
Assay: selective drug sensitivity score (sDSS, relative to normal bone marrow) (sDSS (score)); higher = more potent and effective on the cell line relative to normal bone marrow cells
Details: 72 h
parameter.measured: selective drug sensitivity score
Give the figure only, with no unit attached.

Cc1cc(F)c(C(=O)Nc2cccc(-c3nncn3C(C)C)n2)cc1-n1cnc(C2CC2)c1 [Selonsertib] (top concentration 1000 nM) : 0
Cc1cn(-c2cc(NC(=O)c3ccc(C)c(Nc4nccc(-c5cnccn5)n4)c3)cc(C(F)(F)F)c2)cn1 [Radotinib] (top concentration 10000 nM) : 0

Then there is this compound:
Prompt line: Entry N#Cc1ccnc(N2C(=O)CC[C@H]2C(=O)N(c2cncc(F)c2)[C@H](C(=O)NC2CC(F)(F)C2)c2ccccc2Cl)c1 [Ivosidenib] (top concentration 10000 nM) : reported selective drug sensitivity score = ?
Response line: 0

###

Test system: 697
Assay: selective drug sensitivity score (sDSS, relative to normal bone marrow) (sDSS (score)); higher = more potent and effective on the cell line relative to normal bone marrow cells
Settings: 72 h
Recorded selective drug sensitivity score values for a group of compounds are listed next.
Give the figure only, with no unit attached.

Cc1cc(C)c(CNC(=O)c2cc(-c3ccc(CN4CCOCC4)cc3)cc3c2cnn3C2CCCC2)c(=O)[nH]1 [EPZ-5687] (top concentration 10000 nM) : -0.36
COc1cc(N2CCC(N3CCN(C)CC3)CC2)ccc1Nc1ncc(Cl)c(Nc2ccccc2P(C)(C)=O)n1 [Brigatinib] (top concentration 1000 nM) : -1.84
COc1cccc(OCCCN)c1-c1cc(Nc2cnc(C#N)cn2)n[nH]1 [Prexasertib] (top concentration 10000 nM) : 18.4

Then there is this compound:
Prompt line: Give selective drug sensitivity score (697) of the following compound: CC1=NN(c2ccc(C(=O)O)cc2)C(=O)C1=Cc1ccc(-c2cc(C)c(C)cc2[N+](=O)[O-])o1 [C646] (top concentration 25000 nM)
Response line: 2.34
